- Test system: kochia (Kochia scoparia)
- assay: Test C pre/postemergence
- Format: in vivo
- recordedConditions: Bassia scoparia, pre-emergence, Preemergence, 125 g ai/ha; scale 0 to 100; read-out: Plant response rating, Kochia
List of pest or weed control at 125 g/ha values.

{"givenSmiles": "CCOC(=O)c1nc(C2CC2)nc(N)c1Cl", "pest or weed control at 125 g/ha / %": 100}
{"givenSmiles": "Nc1nc(C2CC2)nc(C(=O)O)c1Br", "pest or weed control at 125 g/ha / %": 85}
{"givenSmiles": "CNc1nc(C2CC2)nc(C(=O)OC)c1Br", "pest or weed control at 125 g/ha / %": 95}
{"givenSmiles": "CCOC(=O)c1nc(C2CC2)nc(N)c1F", "pest or weed control at 125 g/ha / %": 70}
